tested on: FAB9; experiment: qHTS profiling for inhibitors of Plasmodium falciparum proliferation (AID 504749); also: nearly all actives have a fitted effect of over 60% in size; conditions: P. falciparum in erythrocytes, SYBR Green DNA, 72 h; series mostly up to 28.7 µM
Records with an inconclusive call do not appear. Active and inactive are the calls of the source. Calls follow the shape of the dose curve; as a rule, active = well fitted inhibition curve with a large enough effect; inconclusive = small, poorly fitted or top-dose-only effect; inactive = flat fitted curve, though single readings scatter.
Pick one: 1.0 for active, 0.0 for inactive

Some solved entries appear below for comparison.
O=C(O)C(O)c1ccccc1 (centres undefined)
0.0
CC(=O)OCC(=O)[C@@]1(O)CCC2C3C[C@H](C)C4=CC(=O)C=CC4(C)C3C(O)CC21C (some centres undefined)
0.0
C[C@]12CC[C@@H]3c4ccc(O)cc4CC[C@H]3[C@@H]1C[C@H](O)C2O (some centres undefined)
0.0
CC1=C(c2ccc(NN=C(C#N)C#N)cc2)NNC(=O)C1
0.0
Cc1ccccc1N1C(=O)c2cc(N)ccc2N/C1=C\F
0.0
CCCCC(=O)O[C@]1(C(=O)CO)CCC2C3CCC4=CC(=O)CCC4(C)C3C(O)CC21C (some centres undefined)
0.0

I'd appreciate the recorded outcome for CNC1=CN(O)C(c2ccccc2)=c2cc(Cl)ccc2=N1 from this test. 1.0

I'd appreciate the recorded outcome for C[C@@H](O)[C@@H]1C(=O)N2C(C(=O)O)=C([C@H]3CCCO3)S[C@H]12 from this test. 0.0

I'd appreciate the recorded outcome for C=C(CC[C@@H](C)[C@H]1CCC2[C@]1(C)CC[C@]13C[C@@]14CCC(OC(=O)/C=C/c1ccc(O)c(OC)c1)C(C)(C)[C@@H]4CC[C@@]23C)C(C)C (some centres undefined) from this test. 0.0
